test_details: Toxicity against Carassius auratus under laboratory conditions assessed as mortality at 33 ppm measured after 24 hr
Type: organism-based
run_conditions: in vivo

>  <chem_smiles>
CC1(C)CC[C@]2(C(=O)O)CC[C@]3(C)C(=CC[C@@H]4[C@@]5(C)CC[C@H](O)[C@@](C)(CO)[C@@H]5CC[C@]43C)[C@@H]2C1

>  <mortality at 24 h, 33 ppm / %>
0

$$$$
>  <chem_smiles>
CC1(C)CC[C@]2(C(=O)O)CC[C@]3(C)C(=CC[C@@H]4[C@@]5(C)CC[C@H](O)C(C)(C)[C@@H]5CC[C@]43C)[C@@H]2C1

>  <mortality at 24 h, 33 ppm / %>
0

$$$$

* * *

test_details: Toxicity against Carassius auratus under laboratory conditions assessed as mortality at 23 ppm measured after 24 hr
Type: organism-based
run_conditions: in vivo

>  <chem_smiles>
CC1(C)CC[C@]2(C(=O)O)CC[C@]3(C)C(=CC[C@@H]4[C@@]5(C)CC[C@H](O)[C@@](C)(CO)[C@@H]5CC[C@]43C)[C@@H]2C1

>  <mortality at 24 h, 23 ppm>
0%

$$$$
>  <chem_smiles>
CC1(C)CC[C@]2(C(=O)O)CC[C@]3(C)C(=CC[C@@H]4[C@@]5(C)CC[C@H](O)C(C)(C)[C@@H]5CC[C@]43C)[C@@H]2C1

>  <mortality at 24 h, 23 ppm>
0%

$$$$

* * *

test_details: Toxicity against Oreochromis sp. under laboratory conditions assessed as mortality at 5 ppm measured after 96 hr
Assay type: organism-based
run_conditions: in vivo
property: mortality at 96 h, 5 ppm (%)

>  <chem_smiles>
CC1(C)CC[C@]2(C(=O)O)CC[C@]3(C)C(=CC[C@@H]4[C@@]5(C)CC[C@H](O)[C@@](C)(CO)[C@@H]5CC[C@]43C)[C@@H]2C1

>  <endpoint_unit>
%

>  <measurement>
0

$$$$
>  <chem_smiles>
CC1(C)CC[C@]2(C(=O)O)CC[C@]3(C)C(=CC[C@@H]4[C@@]5(C)CC[C@H](O)C(C)(C)[C@@H]5CC[C@]43C)[C@@H]2C1

>  <endpoint_unit>
%

>  <measurement>
0

$$$$

* * *

test_details: Toxicity against Carassius auratus under laboratory conditions assessed as mortality at 40 ppm measured after 48 hr
Assay type: organism-based
run_conditions: in vivo
mortality at 48 h, 40 ppm for assorted compounds
property: mortality at 48 h, 40 ppm (%)

>  <compound>
CC1(C)CC[C@]2(C(=O)O)CC[C@]3(C)C(=CC[C@@H]4[C@@]5(C)CC[C@H](O)C(C)(C)[C@@H]5CC[C@]43C)[C@@H]2C1 [OLEANOLIC_ACID]

>  <measurement>
0

$$$$
>  <compound>
CC1(C)CC[C@]2(C(=O)O)CC[C@]3(C)C(=CC[C@@H]4[C@@]5(C)CC[C@H](O)[C@@](C)(CO)[C@@H]5CC[C@]43C)[C@@H]2C1 [HEDERAGENIN]

>  <measurement>
0

$$$$

* * *

test_details: Toxicity against Carassius auratus under laboratory conditions assessed as mortality at 5 ppm measured after 24 hr
Format: organism-based
run_conditions: in vivo

>  <chem_smiles>
CC1(C)CC[C@]2(C(=O)O)CC[C@]3(C)C(=CC[C@@H]4[C@@]5(C)CC[C@H](O)C(C)(C)[C@@H]5CC[C@]43C)[C@@H]2C1

>  <mortality at 24 h, 5 ppm / %>
0

$$$$
>  <chem_smiles>
CC1(C)CC[C@]2(C(=O)O)CC[C@]3(C)C(=CC[C@@H]4[C@@]5(C)CC[C@H](O)[C@@](C)(CO)[C@@H]5CC[C@]43C)[C@@H]2C1

>  <mortality at 24 h, 5 ppm / %>
0

$$$$

* * *

mortality at 24 h, 54 ppm for assorted compounds
test_details: Toxicity against Carassius auratus under laboratory conditions assessed as mortality at 54 ppm measured after 24 hr
Type: organism-based
run_conditions: in vivo
property: mortality at 24 h, 54 ppm (%)

>  <chem_smiles>
CC1(C)CC[C@]2(C(=O)O)CC[C@]3(C)C(=CC[C@@H]4[C@@]5(C)CC[C@H](O)[C@@](C)(CO)[C@@H]5CC[C@]43C)[C@@H]2C1

>  <endpoint_unit>
%

>  <measurement>
0

$$$$
>  <chem_smiles>
CC1(C)CC[C@]2(C(=O)O)CC[C@]3(C)C(=CC[C@@H]4[C@@]5(C)CC[C@H](O)C(C)(C)[C@@H]5CC[C@]43C)[C@@H]2C1

>  <endpoint_unit>
%

>  <measurement>
0

$$$$

* * *

test_details: Toxicity against Oreochromis sp. under laboratory conditions assessed as mortality at 23 ppm measured after 24 hr
Format: organism-based
run_conditions: in vivo

>  <compound>
CC1(C)CC[C@]2(C(=O)O)CC[C@]3(C)C(=CC[C@@H]4[C@@]5(C)CC[C@H](O)C(C)(C)[C@@H]5CC[C@]43C)[C@@H]2C1 [OLEANOLIC_ACID]

>  <endpoint_unit>
%

>  <mortality at 24 h, 23 ppm>
0

$$$$
>  <compound>
CC1(C)CC[C@]2(C(=O)O)CC[C@]3(C)C(=CC[C@@H]4[C@@]5(C)CC[C@H](O)[C@@](C)(CO)[C@@H]5CC[C@]43C)[C@@H]2C1 [HEDERAGENIN]

>  <endpoint_unit>
%

>  <mortality at 24 h, 23 ppm>
0

$$$$

* * *

test_details: Toxicity against Carassius auratus under laboratory conditions assessed as mortality at 23 ppm measured after 48 hr
Type: organism-based
run_conditions: in vivo

>  <chem_smiles>
CC1(C)CC[C@]2(C(=O)O)CC[C@]3(C)C(=CC[C@@H]4[C@@]5(C)CC[C@H](O)[C@@](C)(CO)[C@@H]5CC[C@]43C)[C@@H]2C1

>  <endpoint_unit>
%

>  <mortality at 48 h, 23 ppm>
0

$$$$
>  <chem_smiles>
CC1(C)CC[C@]2(C(=O)O)CC[C@]3(C)C(=CC[C@@H]4[C@@]5(C)CC[C@H](O)C(C)(C)[C@@H]5CC[C@]43C)[C@@H]2C1

>  <endpoint_unit>
%

>  <mortality at 48 h, 23 ppm>
0

$$$$

* * *

test_details: Toxicity against Carassius auratus under laboratory conditions assessed as mortality at 33 ppm measured after 96 hr
Assay type: organism-based
run_conditions: in vivo

>  <chem_smiles>
CC1(C)CC[C@]2(C(=O)O)CC[C@]3(C)C(=CC[C@@H]4[C@@]5(C)CC[C@H](O)C(C)(C)[C@@H]5CC[C@]43C)[C@@H]2C1

>  <endpoint_unit>
%

>  <mortality at 96 h, 33 ppm>
0

$$$$
>  <chem_smiles>
CC1(C)CC[C@]2(C(=O)O)CC[C@]3(C)C(=CC[C@@H]4[C@@]5(C)CC[C@H](O)[C@@](C)(CO)[C@@H]5CC[C@]43C)[C@@H]2C1

>  <endpoint_unit>
%

>  <mortality at 96 h, 33 ppm>
0

$$$$

* * *

test_details: Toxicity against Oreochromis sp. under laboratory conditions assessed as mortality at 54 ppm measured after 24 hr
Type: organism-based
run_conditions: in vivo
mortality at 24 h, 54 ppm for assorted compounds

>  <chem_smiles>
CC1(C)CC[C@]2(C(=O)O)CC[C@]3(C)C(=CC[C@@H]4[C@@]5(C)CC[C@H](O)C(C)(C)[C@@H]5CC[C@]43C)[C@@H]2C1

>  <mortality at 24 h, 54 ppm [%]>
0

$$$$
>  <chem_smiles>
CC1(C)CC[C@]2(C(=O)O)CC[C@]3(C)C(=CC[C@@H]4[C@@]5(C)CC[C@H](O)[C@@](C)(CO)[C@@H]5CC[C@]43C)[C@@H]2C1

>  <mortality at 24 h, 54 ppm [%]>
0

$$$$

* * *

test_details: Toxicity against Carassius auratus under laboratory conditions assessed as mortality at 54 ppm measured after 96 hr
Assay type: organism-based
run_conditions: in vivo
property: mortality at 96 h, 54 ppm (%)

>  <chem_smiles>
CC1(C)CC[C@]2(C(=O)O)CC[C@]3(C)C(=CC[C@@H]4[C@@]5(C)CC[C@H](O)[C@@](C)(CO)[C@@H]5CC[C@]43C)[C@@H]2C1

>  <measurement>
0

$$$$
>  <chem_smiles>
CC1(C)CC[C@]2(C(=O)O)CC[C@]3(C)C(=CC[C@@H]4[C@@]5(C)CC[C@H](O)C(C)(C)[C@@H]5CC[C@]43C)[C@@H]2C1

>  <measurement>
0

$$$$

* * *

mortality at 96 h, 54 ppm for assorted compounds
test_details: Toxicity against Oreochromis sp. under laboratory conditions assessed as mortality at 54 ppm measured after 96 hr
Format: organism-based
run_conditions: in vivo

>  <chem_smiles>
CC1(C)CC[C@]2(C(=O)O)CC[C@]3(C)C(=CC[C@@H]4[C@@]5(C)CC[C@H](O)C(C)(C)[C@@H]5CC[C@]43C)[C@@H]2C1

>  <mortality at 96 h, 54 ppm, %>
0

$$$$
>  <chem_smiles>
CC1(C)CC[C@]2(C(=O)O)CC[C@]3(C)C(=CC[C@@H]4[C@@]5(C)CC[C@H](O)[C@@](C)(CO)[C@@H]5CC[C@]43C)[C@@H]2C1

>  <mortality at 96 h, 54 ppm, %>
0

$$$$
